Organism: Rattus norvegicus
experiment_description: Open TG-GATES - Regimen: Single
Assay type: toxicity, organism-based, Sprague-Dawley
Parameters: regimen Single, gender Male, age 6 weeks
measurement_conditions: in vivo, po, 0 mg/kg, 9 h, tissue Kidney, route gavage, dose level Control
Recorded KIDNEY_TOTAL by entry
measure: KIDNEY_TOTAL (g)

molecule	measure	measured_number
COc1cc([C@@H]2c3cc4c(cc3[C@@H](O[C@@H]3O[C@@H]5CO[C@@H](C)O[C@H]5[C@H](O)[C@H]3O)[C@H]3COC(=O)[C@H]23)OCO4)cc(OC)c1O [ETOPOSIDE]	KIDNEY_TOTAL	1.9
CN(C)[C@@H]1C(O)=C(C(N)=O)C(=O)[C@@]2(O)C(O)=C3C(=O)c4c(O)cccc4[C@@](C)(O)[C@H]3C[C@@H]12 [TETRACYCLINE]	KIDNEY_TOTAL	1.8
C#C[C@]1(O)CC[C@H]2[C@@H]3CCC4=Cc5oncc5C[C@]4(C)[C@H]3CC[C@@]21C [DANAZOL]	KIDNEY_TOTAL	2
CC(CN1c2ccccc2Sc2ccccc21)N(C)C (stereo not given) [PROMETHAZINE]	KIDNEY_TOTAL	1.9
CCOC(=O)[C@H](CCc1ccccc1)N[C@@H](C)C(=O)N1CCC[C@H]1C(=O)O	KIDNEY_TOTAL	1.9
Clc1c(Cl)c(Cl)c(Cl)c(Cl)c1Cl [PERCHLOROBENZENE]	KIDNEY_TOTAL	1.9
CC(=O)Nc1nnc(S(N)(=O)=O)s1 [ACETAZOLAMIDE]	KIDNEY_TOTAL	1.9
CN1C(C(=O)Nc2ccccn2)=C(O)c2sc(Cl)cc2S1(=O)=O [LORNOXICAM]	KIDNEY_TOTAL	1.9
Cc1cccc(Nc2ccccc2C(=O)O)c1C [MEFENAMIC ACID]	KIDNEY_TOTAL	2
C1CCC(C(CC2CCCCN2)C2CCCCC2)CC1 (stereo not given) [PERHEXILINE]	KIDNEY_TOTAL	1.9

====

Species on record: Rattus norvegicus
experiment_description: Open TG-GATES - Regimen: Single
Type: toxicity, organism-based, Sprague-Dawley
Set-up: regimen Single, gender Male, age 6 weeks
measurement_conditions: in vivo, po, 0 mg/kg, 3 h, tissue Blood, route gavage, dose level Control
Could you please mark t for values of WBC below 80 x10_2/uL and f for values at or above it?

compound	class_assignment
Clc1c(Cl)c(Cl)c(Cl)c(Cl)c1Cl [PERCHLOROBENZENE]	t
Cc1cccc(Nc2ccccc2C(=O)O)c1C [MEFENAMIC ACID]	t
CN1C(C(=O)Nc2ccccn2)=C(O)c2sc(Cl)cc2S1(=O)=O [LORNOXICAM]	f
CCOC(=O)[C@H](CCc1ccccc1)N[C@@H](C)C(=O)N1CCC[C@H]1C(=O)O	f
CN(C)[C@@H]1C(O)=C(C(N)=O)C(=O)[C@@]2(O)C(O)=C3C(=O)c4c(O)cccc4[C@@](C)(O)[C@H]3C[C@@H]12 [TETRACYCLINE]	f
C#C[C@]1(O)CC[C@H]2[C@@H]3CCC4=Cc5oncc5C[C@]4(C)[C@H]3CC[C@@]21C [DANAZOL]	t
C1CCC(C(CC2CCCCN2)C2CCCCC2)CC1 (stereo not given) [PERHEXILINE]	t
CC(CN1c2ccccc2Sc2ccccc21)N(C)C (stereo not given) [PROMETHAZINE]	f
CC(=O)Nc1nnc(S(N)(=O)=O)s1 [ACETAZOLAMIDE]	f
COc1cc([C@@H]2c3cc4c(cc3[C@@H](O[C@@H]3O[C@@H]5CO[C@@H](C)O[C@H]5[C@H](O)[C@H]3O)[C@H]3COC(=O)[C@H]23)OCO4)cc(OC)c1O [ETOPOSIDE]	f

====

Organism: Rattus norvegicus
experiment_description: Open TG-GATES - Regimen: Single
Type: toxicity, organism-based, Sprague-Dawley
Set-up: regimen Single, gender Male, age 6 weeks
measurement_conditions: in vivo, po, 0 mg/kg, 6 h, tissue Liver, route gavage, dose level Control
Kindly return 1 (yes) if reported LIVER is no lower than 9 g; return 0 (no) if it is lower.

compound	class_assignment
CC(CN1c2ccccc2Sc2ccccc21)N(C)C (stereo not given)	0 (no)
CN(C)[C@@H]1C(O)=C(C(N)=O)C(=O)[C@@]2(O)C(O)=C3C(=O)c4c(O)cccc4[C@@](C)(O)[C@H]3C[C@@H]12	0 (no)
CCOC(=O)[C@H](CCc1ccccc1)N[C@@H](C)C(=O)N1CCC[C@H]1C(=O)O	1 (yes)
CN1C(C(=O)Nc2ccccn2)=C(O)c2sc(Cl)cc2S1(=O)=O	1 (yes)
C1CCC(C(CC2CCCCN2)C2CCCCC2)CC1 (stereo not given)	1 (yes)
Clc1c(Cl)c(Cl)c(Cl)c(Cl)c1Cl	1 (yes)

====

Species: Rattus norvegicus
experiment_description: Open TG-GATES - Regimen: Daily Repeat
Type: toxicity, organism-based, Sprague-Dawley
Set-up: regimen Daily Repeat, gender Male, age 6 weeks
measurement_conditions: in vivo, po, 0 mg/kg, 72 h, tissue Plasma, route gavage, dose level Control, time 3 day
Recorded PL by entry
measure: PL (mg/dL)

                                   compound  measured_number
0  C#C[C@]1(O)CC[C@H]2[C@@H]3CCC4=Cc5oncc5C[C@]4(C)[C@H]3CC[C@@]21C              140
1  CCOC(=O)[C@H](CCc1ccccc1)N[C@@H](C)C(=O)N1CCC[C@H]1C(=O)O            149.6
2  CN(C)[C@@H]1C(O)=C(C(N)=O)C(=O)[C@@]2(O)C(O)=C3C(=O)c4c(O)cccc4[C@@](C)(O)[C@H]3C[C@@H]12            150.2
3  CC(CN1c2ccccc2Sc2ccccc21)N(C)C (centres undefined)              161

====

Recorded KIDNEY_R by entry
Species: Rattus norvegicus
experiment_description: Open TG-GATES - Regimen: Daily Repeat
Assay type: toxicity, organism-based, Sprague-Dawley
Parameters: regimen Daily Repeat, gender Male, age 6 weeks
measurement_conditions: in vivo, po, 0 mg/kg, 72 h, tissue Kidney, route gavage, dose level Control, time 3 day
measure: KIDNEY_R (g)

>>> df
                                   compound  measured_number
0  CN(C)[C@@H]1C(O)=C(C(N)=O)C(=O)[C@@]2(O)C(O)=C3C(=O)c4c(O)cccc4[C@@](C)(O)[C@H]3C[C@@H]12 [TETRACYCLINE]              0.9
1  Cc1cccc(Nc2ccccc2C(=O)O)c1C [MEFENAMIC ACID]                1
2  Clc1c(Cl)c(Cl)c(Cl)c(Cl)c1Cl [PERCHLOROBENZENE]              1.1
3  CCOC(=O)[C@H](CCc1ccccc1)N[C@@H](C)C(=O)N1CCC[C@H]1C(=O)O              1.1
4  CN1C(C(=O)Nc2ccccn2)=C(O)c2sc(Cl)cc2S1(=O)=O [LORNOXICAM]                1
5  C#C[C@]1(O)CC[C@H]2[C@@H]3CCC4=Cc5oncc5C[C@]4(C)[C@H]3CC[C@@]21C [DANAZOL]                1
6  CC(CN1c2ccccc2Sc2ccccc21)N(C)C (stereo not given) [PROMETHAZINE]              1.1
7  C1CCC(C(CC2CCCCN2)C2CCCCC2)CC1 (stereo not given) [PERHEXILINE]                1
8  O=C(O)Cc1ccccc1Nc1c(Cl)cccc1Cl [DICLOFENAC]                1
9  CC(=O)Nc1nnc(S(N)(=O)=O)s1 [ACETAZOLAMIDE]                1

====

Species on record: Rattus norvegicus
experiment_description: Open TG-GATES - Regimen: Single
Assay type: toxicity, organism-based, Sprague-Dawley
Design: regimen Single, gender Male, age 6 weeks
measurement_conditions: in vivo, po, 0 mg/kg, 9 h, tissue Blood, route gavage, dose level Control
Recorded PT by entry
measure: PT (s)

In [3]: df
Out[3]:
                                   molecule  measured_number
0  CN(C)[C@@H]1C(O)=C(C(N)=O)C(=O)[C@@]2(O)C(O)=C3C(=O)c4c(O)cccc4[C@@](C)(O)[C@H]3C[C@@H]12             12.8
1  CCOC(=O)[C@H](CCc1ccccc1)N[C@@H](C)C(=O)N1CCC[C@H]1C(=O)O             11.7
2              Clc1c(Cl)c(Cl)c(Cl)c(Cl)c1Cl             12.3
3  CC(CN1c2ccccc2Sc2ccccc21)N(C)C (centres undefined)             16.7
